src = patent US11760722B2

- System: human coronavirus (HCoV) 229E
- experimental_details: microbe, parasite or virus in culture
- Format: cell-based, human coronavirus 229E
- setup_conditions: unidentified human coronavirus, 72 h, MRCS cells, HCoV 229E, 3 days, CellTiter Glo; read-out: 229E CPE EC50
endpoint: EC50 (nM)
Express it in nM; write the number only.

Sample records with EC50:
compound="CC(C)(C)[C@H](NC(=O)C(F)(F)F)C(=O)N1C[C@H]2[C@@H]([C@H]1C(=O)N[C@H](/C=C/C#N)C[C@@H]1CCNC1=O)C2(C)C [Compound 103]" test_value=16900
compound="CC(C)(C)[C@H](NC(=O)C(F)C(F)(F)F)C(=O)N1C[C@H]2[C@@H]([C@H]1C(=O)N[C@H](C#N)C[C@@H]1CCNC1=O)C2(C)C (stereo partly drawn) [Compound 159]" test_value=134
compound="CC(C)(C)[C@H](NC(=O)C(F)(F)C(F)(F)C(F)(F)F)C(=O)N1C[C@H]2[C@@H]([C@H]1C(=O)N[C@H](C#N)C[C@@H]1CCNC1=O)C2(C)C [Compound 133]" test_value=122
compound="CC(C)(C)[C@H](NC(=O)c1ccc2ccccc2c1)C(=O)N1C[C@H]2[C@@H]([C@H]1C(=O)N[C@H](C#N)C[C@@H]1CCNC1=O)C2(C)C [Compound 106]" test_value=4020
compound="C=C(C(=O)N[C@H](C(=O)N1C[C@H]2[C@@H]([C@H]1C(=O)N[C@H](C#N)C[C@@H]1CCNC1=O)C2(C)C)C(C)(C)C)C(F)(F)F [Compound 92]" test_value=17100

Form: compound = CC(C)(C)[C@H](NC(=O)C12CC(F)(C1)C2)C(=O)N1C[C@H]2[C@@H]([C@H]1C(=O)N[C@H](C#N)C[C@@H]1CCNC1=O)C2(C)C [Compound 34] ; EC50 = 534

Kindly note the recorded EC50 for CC(C)(C)[C@H](NC(=S)N1CCCCC1)C(=O)N1C[C@H]2[C@@H]([C@H]1C(=O)N[C@H](C#N)C[C@@H]1CCNC1=O)C2(C)C [Compound 109] , which is 985

Record CCNC(=S)N[C@H](C(=O)N1C[C@H]2[C@@H]([C@H]1C(=O)N[C@H](C#N)C[C@@H]1CCNC1=O)C2(C)C)C(C)(C)C [Compound 72] , field EC50: 718

Noted for CC(C)(C)[C@H](NS(=O)(=O)c1ccc(OC(F)(F)F)cc1)C(=O)N1C[C@H]2[C@@H]([C@H]1C(=O)N[C@H](C#N)C[C@@H]1CCNC1=O)C2(C)C [Compound 89] : its EC50 reads 322

Recorded EC50 (compound CC(C)(C)[C@H](NC(=O)c1ccc2[nH]ncc2c1)C(=O)N1C[C@H]2[C@@H]([C@H]1C(=O)N[C@H](C#N)C[C@@H]1CCNC1=O)C2(C)C [Compound 24] ): 23400

Short answer for CC(C)(C)[C@H](NC(=O)C(F)(Cl)C(F)(F)F)C(=O)N1C[C@H]2[C@@H]([C@H]1C(=O)N[C@H](C#N)C[C@@H]1CCNC1=O)C2(C)C (stereo partly drawn) [Compound 75] : EC50 was 92

Value of measured EC50 for the entry Cc1ccc(S(=O)(=O)N[C@H](C(=O)N2C[C@H]3[C@@H]([C@H]2C(=O)N[C@H](C#N)C[C@@H]2CCNC2=O)C3(C)C)C(C)(C)C)s1 [Compound 118] : 322

The compound CC(C)(C)[C@H](NS(=O)(=O)c1ccc(C2CC2)cc1)C(=O)N1C[C@H]2[C@@H]([C@H]1C(=O)N[C@H](C#N)C[C@@H]1CCNC1=O)C2(C)C [Compound 121] showed EC50 equal to 56

Just so you know, measured EC50 for CC(C)(C)[C@H](NS(=O)(=O)c1ccc(Cl)s1)C(=O)N1C[C@H]2[C@@H]([C@H]1C(=O)N[C@H](C#N)C[C@@H]1CCNC1=O)C2(C)C [Compound 54] came out at 106

Form field EC50, entry CC(C)(C)[C@H](NC(=O)c1cccc2ccccc12)C(=O)N1C[C@H]2[C@@H]([C@H]1C(=O)N[C@H](C#N)C[C@@H]1CCNC1=O)C2(C)C [Compound 119] : 546

Entry CC(C)(C)[C@H](NS(=O)(=O)c1ccccc1)C(=O)N1C[C@H]2[C@@H]([C@H]1C(=O)N[C@H](C#N)C[C@@H]1CCNC1=O)C2(C)C [Compound 95] , EC50 reported as 358

Form: compound = CNC(=S)N[C@@H](CC1CCC1)C(=O)N1C[C@H]2[C@@H]([C@H]1C(=O)N[C@H](C#N)C[C@@H]1CCNC1=O)C2(C)C [Compound 78] ; EC50 = 12600

Consider CC(C)(C)[C@H](NC(=O)CC12CC(C1)C2)C(=O)N1C[C@H]2[C@@H]([C@H]1C(=O)N[C@H](C#N)C[C@@H]1CCNC1=O)C2(C)C [Compound 40] . Its measured EC50 is 3120
